- tested.system: EPHB2 (UniProt P29323)
- Sequence (P29323 whole entry, looked up): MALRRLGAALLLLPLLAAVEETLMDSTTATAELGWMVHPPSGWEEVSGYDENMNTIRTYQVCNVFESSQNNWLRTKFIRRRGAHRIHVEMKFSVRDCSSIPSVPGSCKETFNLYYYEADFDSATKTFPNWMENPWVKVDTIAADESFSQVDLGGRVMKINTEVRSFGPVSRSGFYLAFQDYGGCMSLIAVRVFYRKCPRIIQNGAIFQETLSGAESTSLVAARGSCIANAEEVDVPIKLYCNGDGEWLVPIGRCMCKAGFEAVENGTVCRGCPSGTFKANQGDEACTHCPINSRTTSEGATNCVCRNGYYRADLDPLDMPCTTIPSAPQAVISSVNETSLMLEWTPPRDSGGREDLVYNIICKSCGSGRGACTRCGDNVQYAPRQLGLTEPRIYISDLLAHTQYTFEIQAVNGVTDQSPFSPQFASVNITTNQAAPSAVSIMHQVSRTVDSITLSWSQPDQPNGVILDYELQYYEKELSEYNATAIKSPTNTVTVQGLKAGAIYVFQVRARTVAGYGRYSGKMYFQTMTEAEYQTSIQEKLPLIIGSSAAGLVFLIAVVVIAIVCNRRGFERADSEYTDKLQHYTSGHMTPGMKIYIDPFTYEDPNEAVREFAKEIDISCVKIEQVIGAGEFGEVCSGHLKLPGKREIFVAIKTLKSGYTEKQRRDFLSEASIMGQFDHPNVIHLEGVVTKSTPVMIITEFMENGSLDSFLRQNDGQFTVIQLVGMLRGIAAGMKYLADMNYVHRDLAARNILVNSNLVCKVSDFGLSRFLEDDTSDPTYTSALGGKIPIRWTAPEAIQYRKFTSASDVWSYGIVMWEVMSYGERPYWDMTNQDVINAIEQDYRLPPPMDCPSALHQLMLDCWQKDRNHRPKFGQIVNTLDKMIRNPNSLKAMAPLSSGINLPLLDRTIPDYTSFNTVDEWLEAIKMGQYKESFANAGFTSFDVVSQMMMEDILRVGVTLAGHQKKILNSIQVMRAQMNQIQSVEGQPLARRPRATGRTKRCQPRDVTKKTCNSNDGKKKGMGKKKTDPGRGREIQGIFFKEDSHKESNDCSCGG
- test.description: phosphorylation enrichment, bacterial display (enrichment ratio); higher = better substrate or ligand; peptides without Tyr show the background;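 note: 11-residue human phosphosite peptides and single-mutation variants displayed on the E. coli surface, counted by deep sequencing, each peptide's frequency after selection divided by its frequency in the unselected input library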;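 note: frequency after pTyr selection over input frequency; kinase dosed for 20-30% of maximal phosphorylation in three min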
measurement.kind: phosphorylation enrichment
Form field (numeric): enter value without unit.

Solved cases below.
>>> test_value("AFGGGYGGVLT [KRT19_Y65_YF]")
0.407
>>> test_value("RRIHSYRGHVW [VHL_Y112_L116V]")
0.486
>>> test_value("ATDLAYYLVCK [ASL_Y375_R379C]")
0.885

Let us move to another entry and its phosphorylation enrichment.
Any idea what phosphorylation enrichment was measured for NCLRQYVAGRF [CRB1_Y711_E710Q] ? 0.492

* * *

Here, each record is paired with measured phosphorylation enrichment data.
- tested.system: FGFR1 (UniProt P11362)
- Sequence (P11362 whole entry, looked up): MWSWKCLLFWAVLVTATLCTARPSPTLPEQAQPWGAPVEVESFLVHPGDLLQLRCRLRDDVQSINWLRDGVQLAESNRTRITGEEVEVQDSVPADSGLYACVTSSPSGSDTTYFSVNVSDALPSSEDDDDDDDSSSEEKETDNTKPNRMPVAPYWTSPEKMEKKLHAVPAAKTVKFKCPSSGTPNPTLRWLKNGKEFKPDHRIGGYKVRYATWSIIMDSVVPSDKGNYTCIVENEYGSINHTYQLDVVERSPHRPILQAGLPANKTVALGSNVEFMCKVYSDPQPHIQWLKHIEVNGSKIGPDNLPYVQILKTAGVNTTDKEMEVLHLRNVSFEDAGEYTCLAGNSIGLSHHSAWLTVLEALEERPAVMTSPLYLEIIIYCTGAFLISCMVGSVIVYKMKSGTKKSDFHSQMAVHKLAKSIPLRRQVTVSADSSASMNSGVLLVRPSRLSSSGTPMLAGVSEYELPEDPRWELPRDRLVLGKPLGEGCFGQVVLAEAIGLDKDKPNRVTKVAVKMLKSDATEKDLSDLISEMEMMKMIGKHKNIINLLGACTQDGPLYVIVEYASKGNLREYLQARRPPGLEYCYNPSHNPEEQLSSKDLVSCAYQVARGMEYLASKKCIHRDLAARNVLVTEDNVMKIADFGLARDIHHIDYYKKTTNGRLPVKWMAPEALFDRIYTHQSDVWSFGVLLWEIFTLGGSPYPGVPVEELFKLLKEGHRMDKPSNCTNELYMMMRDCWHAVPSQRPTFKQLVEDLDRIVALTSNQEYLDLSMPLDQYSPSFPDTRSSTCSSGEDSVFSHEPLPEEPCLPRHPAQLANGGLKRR
- test.description: phosphorylation enrichment, bacterial display (enrichment ratio); higher = better substrate or ligand; peptides without Tyr show the background
Form field (numeric): enter value without unit.

Solved cases below.
>>> test_value("HFEDGYPGGSD [CTNND1_Y221_YF]")
0.668
>>> test_value("NTGDDYDLYGG [PTPN11_Y63_Y62D]")
0.51
>>> test_value("NPPGMYPVTGP [LPP_Y346]")
0.394

Any idea what phosphorylation enrichment was measured for PLDGGYFTLQI [TP53_Y327_E326G] ? 1.67

* * *

- Tested on: c-Src
- test.description: phosphorylation enrichment, bacterial display (enrichment ratio); higher = better substrate or ligand; peptides without Tyr show the background
// bucketize phosphorylation enrichment: low = under 0.6, mid = from 0.6 up to 1, high = 1 and over

For this sequence, which bin applies? RPAPQYPHQVP [ADAM12_Y895] mid

* * *

Here, each record is paired with measured phosphorylation enrichment data.
- tested.system: EPHB2 (UniProt P29323)
- test.description: phosphorylation enrichment, bacterial display (enrichment ratio); higher = better substrate or ligand; peptides without Tyr show the background
Form field (numeric): enter value without unit.

>>> test_value("LFSDHYSPSGR [TMPRSS12_Y23_YF]")
0.452
>>> test_value("FGAHNYHPLPV [OAT_Y55_YF]")
0.677
>>> test_value("RTTIHYNFMCN [TP53_Y234_C229R_YF]")
0.808
>>> test_value("RKELFYKADGE [SERPINC1_Y272]")
0.548
>>> test_value("RREWFYEVIIV [BACE1_Y260_YF]")
0.372

Let us move to another entry and its phosphorylation enrichment.
Any idea what phosphorylation enrichment was measured for GGMTEYNLVVV [KRAS_Y4_K5N] ? 0.552

* * *

- tested.system: Fes (UniProt P07332)
- Sequence (P07332 whole entry, looked up): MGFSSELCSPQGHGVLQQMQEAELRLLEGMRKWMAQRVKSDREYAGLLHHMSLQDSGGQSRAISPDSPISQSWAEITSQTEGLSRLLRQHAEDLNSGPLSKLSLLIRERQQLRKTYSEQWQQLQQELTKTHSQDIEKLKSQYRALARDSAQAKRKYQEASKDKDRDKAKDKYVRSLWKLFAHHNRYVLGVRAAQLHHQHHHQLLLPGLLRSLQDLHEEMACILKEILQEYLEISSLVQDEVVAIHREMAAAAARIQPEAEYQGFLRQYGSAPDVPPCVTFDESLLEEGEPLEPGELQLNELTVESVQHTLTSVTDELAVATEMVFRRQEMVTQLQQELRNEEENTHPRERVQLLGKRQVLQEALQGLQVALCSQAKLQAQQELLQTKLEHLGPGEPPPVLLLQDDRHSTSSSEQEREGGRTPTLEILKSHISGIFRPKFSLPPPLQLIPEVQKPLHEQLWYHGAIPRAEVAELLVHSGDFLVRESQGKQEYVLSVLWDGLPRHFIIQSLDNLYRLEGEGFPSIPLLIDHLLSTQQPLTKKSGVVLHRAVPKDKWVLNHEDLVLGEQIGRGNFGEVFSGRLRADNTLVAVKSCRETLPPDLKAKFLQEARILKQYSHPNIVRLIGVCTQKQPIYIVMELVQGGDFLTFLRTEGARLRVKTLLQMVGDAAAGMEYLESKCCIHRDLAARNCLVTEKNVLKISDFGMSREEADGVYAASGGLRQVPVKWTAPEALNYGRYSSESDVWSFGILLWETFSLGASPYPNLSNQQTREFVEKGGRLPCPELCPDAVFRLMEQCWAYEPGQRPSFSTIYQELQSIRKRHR
- test.description: phosphorylation enrichment, bacterial display (enrichment ratio); higher = better substrate or ligand; peptides without Tyr show the background
measurement.kind: phosphorylation enrichment

Solved cases below.
>>> test_value("SEDSEYYRAFE [CASQ2_Y178_K180R]")
1.29
>>> test_value("ESLRPYDVMDV [KCNQ2_Y562]")
1.14
>>> test_value("TLQSMSGCDVG [HLA-B_Y123_Y123S]")
0.791

Any idea what phosphorylation enrichment was measured for KLPDAYERFIL [G6PD_Y437_L440F] ? 1.06

Any idea what phosphorylation enrichment was measured for ILGLEYSLRVP [HELZ2_Y1304] ? 1.22

Any idea what phosphorylation enrichment was measured for VVIVLYFSLWK [SLC6A2_Y249] ? 1.13

Any idea what phosphorylation enrichment was measured for VFDMLYQLANL [USP24_Y1087] ? 1.08

Any idea what phosphorylation enrichment was measured for FSGIFYKPESL [L2HGDH_Y103_H98Y_YF] ? 1.03

Any idea what phosphorylation enrichment was measured for NNIDFYKKTTN [FGFR2_Y657_YF] ? 0.695

Any idea what phosphorylation enrichment was measured for LASLIYNFVLF [AQP6_Y231] ? 2.2

Any idea what phosphorylation enrichment was measured for RSAGKYDVYLI [MECP2_Y120] ? 1.06

Any idea what phosphorylation enrichment was measured for MPVDGYISGLL [PAK6_Y81] ? 0.953

Any idea what phosphorylation enrichment was measured for AQESNYRLLRR [SLC20A2_Y377] ? 0.688

Any idea what phosphorylation enrichment was measured for CNPLCYPTIMI [OR6K6_Y160_R159C] ? 0.821

Any idea what phosphorylation enrichment was measured for ANAYIYDVQLP [L1CAM_Y420_V421D] ? 1.05

Any idea what phosphorylation enrichment was measured for NLVSEYQQYQD [TUBB3_Y422_D417N] ? 1.05
